# growth inhibition values compiled below
# PROTOCOL SUMMARY: NCI Yeast Anticancer Drug Screen. Data for the sgs1 mgt1 strain (AID 161);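 further: 0% = growth of cultures given vehicle only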
# CONDITION INFO: S. cerevisiae sgs1 mgt1 strain, at 50.0 µM, hits give high values
# Description: Growth inhibition of yeast strains with defined genetic alterations is measured as a screen for potential anti-cancer activity. Selected strains with alterations in DNA damage repair or cell cycle control were exposed to compounds and growth inhibition was measured relative to vehicle treated controls. The strain used in this assay is sgs1 mgt1
The panel holds about 79,000 compounds, 15% with a hit somewhere; the sample as a whole holds those more often.
# output: bare number, implied unit %

Completed entries (count: 6):
| MOLECULE | REPORTED MEASUREMENT |
| --- | --- |
| O=[N+]([O-])c1ccc(COP(=O)(OCc2ccc([N+](=O)[O-])cc2)OCc2ccc([N+](=O)[O-])cc2)cc1 | 2.9 |
| COc1ccc(S(=O)(=O)N/N=C\c2cc(I)cc(I)c2O)cc1 | 25.2 |
| O=C1c2cc(CCl)sc2C(=O)c2ccsc21 | 89.5 |
| CC(C)N1CCC(OC(=O)Nc2ccccc2)C1 (configuration not stated) | -7.75 |
| C/C(=N/NC(=S)N1CCCCC1)c1ccccc1O | 1.55 |
| ON1c2ccccc2-c2ccccc2C1(c1ccccc1)c1ccccc1 | 78.7 |

Consider now this further molecule.
Which measured growth inhibition value corresponds to "CCOc1c/c(=N\N=C(/C)c2ccc(Cl)cc2)n(C)c(=O)n1C" ? -10.5

Origin of the recorded values: PubChem BioAssay (NCI)
